# viability, T/C annotations
Tested on: 898857-211-R-J1-PDC complex spheroids, growth % test/control;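 note: spheroids exposed to compound for seven days before readout; 100% = DMSO vehicle control wells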
ASSAY: Anticancer human tumor 898857-211-R-J1-PDC patient-derived melanoma cell line growth inhibition [RAS]
CONDITIONS USED: second compound 0.00949 µM; first compound 0.0316 µM; stronger effect = lower value
Numeric only. Scale: %

Worked cases, viability, T/C given:
COMPOUND: CC(C)n1nc(-c2ccc3oc(N)nc3c2)c2c(N)ncnc21 + CCn1c(-c2cccnc2C(C)OC)c2c3cc(ccc31)N1CCOC(CC(NC(=O)C(C(C)C)N(C)C(=O)C3(F)CCN(C(=O)C#CC(C)(C)N(C)C)CC3)C(=O)N3CCCC(N3)C(=O)OCC(C)(C)C2)C1
ATTRIBUTE MEASURED: viability, T/C
UNIT STRING: %
MEASURED: 41.3

COMPOUND: CC(=O)OC12COC1CC(O)C1(C)C(=O)C(O)C3=C(C)C(OC(=O)C(O)C(NC(=O)OC(C)(C)C)c4ccccc4)CC(O)(C(OC(=O)c4ccccc4)C21)C3(C)C (stereo not drawn) + CCn1c(-c2cccnc2C(C)OC)c2c3cc(ccc31)N1CCOC(CC(NC(=O)C(C(C)C)N(C)C(=O)C3(F)CCN(C(=O)C#CC(C)(C)N(C)C)CC3)C(=O)N3CCCC(N3)C(=O)OCC(C)(C)C2)C1
ATTRIBUTE MEASURED: viability, T/C
UNIT STRING: %
MEASURED: 7.95

For the next question, use this compound.
Recorded viability, T/C of O=C(c1ccc(F)c(F)c1Nc1ccc(I)cc1F)N1CC(O)([C@@H]2CCCCN2)C1 + CCn1c(-c2cccnc2C(C)OC)c2c3cc(ccc31)N1CCOC(CC(NC(=O)C(C(C)C)N(C)C(=O)C3(F)CCN(C(=O)C#CC(C)(C)N(C)C)CC3)C(=O)N3CCCC(N3)C(=O)OCC(C)(C)C2)C1 , please.
27.3
